Data credit: PubChem BioAssay (NCI)

Consider the following molecules and their measured GI50 readings.
Test system: SF-539 CNS
Experiment: NCI tumour cell line growth inhibition, 48 h

Example results:
| molecule | GI50 |
| --- | --- |
| C=C(C)[C@@H]1CC[C@]2(C(=O)OC)CC[C@]3(C)[C@H](CC[C@@H]4[C@@]5(C)CC[C@H](N)C(C)(C)[C@@H]5CC[C@]43C)[C@@H]12 | 1.63 µM |
| C=C1CC[C@@H]2[C@]3(C)COC(c4cn[nH]c4-c4ccccc4)O[C@@H]3CC[C@@]2(C)[C@@H]1C/C=C1/C(=O)OCC1O (some centres undefined) | 15.6 µM |
| N#CC1=C(c2cccs2)Nc2c(c(-c3ccccc3)nn2-c2ccccc2)C12C(=O)Nc1ccc(Br)cc12 (centres undefined) | 15.2 µM |

Now, please, on to the next molecule.
In: GI50 for COc1ccc2[nH]c(O)c(N=NC(=O)COc3ccc(NC(=O)Nc4ccccc4)cc3)c2c1 ?
Out: 14.7 µM
